Test system: R213X mutation in the p53 gene, HDQ-P1 cells
TEST_DESCRIPTION: Read-through of R213X mutation in HDQ-P1 cells: truncated and full-length p53 by automated capillary electrophoresis western analysis
Type: cell-based
TEST_CONDITIONS: Homo sapiens, pC100% RT: production of full-length p53, concentration giving the same response as 200 μM G418, 24 h
READOUT_KIND: EC (100% of 200 uM G418 response)

Some solved entries appear below for comparison.
What value of measured EC (100% of 200 uM G418 response) is listed for CNc1nc(N[C@H]2CN(C)C[C@@H]2O)nc2nc3c(c(C)c12)CCC3 ?
0.1 to 1 µM

Requested read-out: EC (100% of 200 uM G418 response). Entry: CNc1nc(N[C@H]2CN(C)C[C@@H]2O)nc2nc(C)c3c(c12)CCC3
1 to 10 µM

Give the measured EC (100% of 200 uM G418 response) of CNc1nc(NC2CCNCC2)nc2nc3c(c(C)c12)CCC3 .
1 to 10 µM

Fill in: EC (100% of 200 uM G418 response) of Cc1c2c(nc3nc(NC4CCN(Cc5cc(F)ccc5O)CC4)nc(N)c13)CCC2 is ___
0.1 to 1 µM

What value of EC (100% of 200 uM G418 response) has been recorded for this entry: CNc1nc(N[C@@H]2CCNC2)nc2nc(C)c3c(c12)CCC3
1 to 10 µM

Using the record for CCNc1nc(N[C@@H]2CCN(C)C2)nc2nc(C)c3c(c12)CCC3 , report its EC (100% of 200 uM G418 response).
1 to 10 µM

I'd like to know its EC (100% of 200 uM G418 response). The compound in question is Cc1nc2nc(NC3CCN(Cc4cccc(F)c4O)CC3)nc(N)c2c2c1CCC2
1 to 10 µM

Reported EC (100% of 200 uM G418 response) for Cc1c2c(nc3nc(NC4CCN(Cc5ccncc5)CC4)nc(N)c13)CCC2 : what is it?
1 to 10 µM

Entry Cc1c2c(nc3nc(NC4CCN(Cc5ccc(C#N)c(F)c5)CC4)nc(N)c13)CCC2 has what EC (100% of 200 uM G418 response)?
1 to 10 µM

I have this compound here, Cc1c2c(nc3nc(NC4CCN(Cc5ccccc5)CC4)nc(N)c13)CCC2 , and I need its recorded EC (100% of 200 uM G418 response).
0.1 to 1 µM

# ---- query compound ----
Suppose we examine the compound Cc1c2c(nc3nc(NC4CCN(Cc5cccc(F)c5O)CC4)nc(N)c13)CCC2 ; what EC (100% of 200 uM G418 response) value has been reported?
1 to 10 µM
